- Test system: PXR homodimer (NR concentration 270 nM)
- PROTOCOL_DESCRIPTION: PBM binding z-score (relative to random genomic background probes); higher = stronger binding; sequences stand for … in GC…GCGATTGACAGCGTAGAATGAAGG
# Lookup of reported PBM binding z-score keyed by entry

| QUERY_SEQUENCE | SYSTEM_NAME | PBM binding z-score |
| --- | --- | --- |
| CGTCCGAGGTCAATGCTAGGTCAGTGAAAGCATT | PXR homodimer (NR concentration 270 nM) | 2.14 |
| CGAACTAGGTGAAAGGACAGTGAAAGGCGACGTA | PXR homodimer (NR concentration 270 nM) | -0.114 |
| CCTTACGGGTCACTTACAGGTTATAGCATTTGGA | PXR homodimer (NR concentration 270 nM) | 0.26 |
| CGAACTAGGTCACCATGACAGTGAAGAGGTTGGA | PXR homodimer (NR concentration 270 nM) | -0.124 |
| ATCGAAAGGTGGACGAGGTGAGTATACACCGTTT | PXR homodimer (NR concentration 270 nM) | 0.0997 |
| GATACAGGGGCAAGGCCAGAGTACGCGTATTGAT | PXR homodimer (NR concentration 270 nM) | 0.0474 |
| CCGAGTAGGTTACCAGGGGGCATTCAGTGCGAAT | PXR homodimer (NR concentration 270 nM) | 5.81 |
| ATGTGTAGGTTACATCCGGGTCATTCAGGCTATG | PXR homodimer (NR concentration 270 nM) | 2.51 |
| ATATGTAGGTTAGGGTCCTTCAGAAAGTAGGGAA | PXR homodimer (NR concentration 270 nM) | 0.477 |
| CTATGTAGCTTAAGGGGGTCATTCAGTTTGAAAG | PXR homodimer (NR concentration 270 nM) | 10 |
| CCGAGTAGGTTACGTGGGGGCATTCAGTGCGAAT | PXR homodimer (NR concentration 270 nM) | 6.32 |
| CGAACTAGTTCAAAGGACAGTGAAAGGCGACGTA | PXR homodimer (NR concentration 270 nM) | 0.322 |

Ref: the supplement of paper PMC6555819
